# credit: patent US7118895B2

Recorded Decomposition efficiency of glycitin family in soymilk for the following molecules
test system: Crude diglycosidase; test: Examination of temperature in the conversion into isoflavone aglycons by diglycosidase using soybean materials; format: biochemical, Penicillium multicolor IAM7153; conditions: 65 °C; heat treatment of enzyme: yes; 6 h
Answer format: numeric, % implied, no suffix.

{"columns": ["Molecule", "Units Of Measure", "Number"],
 "data": [
  ["COc1cc2c(=O)c(-c3ccc(O)cc3)coc2cc1O [glycitein]", "%", 7.2],
  ["COc1cc2c(=O)c(-c3ccc(O)cc3)coc2cc1O[C@@H]1O[C@H](CO)[C@@H](O)[C@H](O)[C@H]1O [glycitin]", "%", 56.8]
]}

Now take the following molecule into account.
Field request: Decomposition efficiency of glycitin family in soymilk | item: COc1cc2c(=O)c(-c3ccc(O)cc3)coc2cc1O[C@@H]1O[C@H](COC(=O)CC(=O)O)[C@@H](O)[C@H](O)[C@H]1O [malonylglycitin, 6″-O-malonylglycitin]
36.0

* * *

tested on: Crude diglycosidase; assay: Examination of substrate concentration in the conversion into isoflavone aglycons by diglycosidase using soybean materials; type: biochemical, Penicillium multicolor IAM7153; conditions: defatted soybean, substrate concentration 10%, heat treatment of enzyme no, reaction time 6 h;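 also: percent of the isoflavone family total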
Recorded Decomposition efficiency: ratio of each glycoside/aglycon within its isoflavone family for the following compounds
Answer format: numeric, % implied, no suffix.

{"columns": ["Chemical String", "Number"],
 "data": [
  ["COc1cc2c(=O)c(-c3ccc(O)cc3)coc2cc1O[C@@H]1O[C@H](COC(=O)CC(=O)O)[C@@H](O)[C@H](O)[C@H]1O", 27.9]
]}

I'm curious: which Decomposition efficiency: ratio of each glycoside/aglycon within its isoflavone family was measured for `COc1cc2c(=O)c(-c3ccc(O)cc3)coc2cc1O` tested on Crude diglycosidase?
72.1

* * *

test system: Crude diglycosidase; test: Examination of temperature in the conversion into isoflavone aglycons by diglycosidase using soybean materials; type: biochemical, Penicillium multicolor IAM7153; design: concentration or dose not given beside the values; conditions: 30 °C; heat treatment of enzyme: no; 3 h
Readout Label: Decomposition efficiency of daidzin family in soymilk (%)
Answer format: numeric, % implied, no suffix.

{"columns": ["Compound", "Units Of Measure", "Number"],
 "data": [
  ["O=C(O)CC(=O)OC[C@H]1O[C@@H](Oc2ccc3c(=O)c(-c4ccc(O)cc4)coc3c2)[C@H](O)[C@@H](O)[C@@H]1O [malonyldaidzin, 6″-O-malonyldaidzin]", "%", 52.8]
]}

Now take the following compound into account.
Field request: Decomposition efficiency of daidzin family in soymilk | item: O=c1c(-c2ccc(O)cc2)coc2cc(O)ccc12 [daidzein]
47.2

* * *

tested on: Crude diglycosidase; assay: Examination of pH in the conversion into isoflavone aglycons by diglycosidase using soybean materials; type: biochemical, Penicillium multicolor IAM7153; details: pH3.7; heat treatment of enzyme: no; reaction time 1 h
Readout Label: Decomposition efficiency of daidzin family in concentrated soybean protein (%)
Answer format: numeric, % implied, no suffix.

{"columns": ["Compound", "Number"],
 "data": [
  ["O=c1c(-c2ccc(O)cc2)coc2cc(O)ccc12 [daidzein]", 58.4]
]}

Field request: Decomposition efficiency of daidzin family in concentrated soybean protein | item: CC(=O)OC[C@H]1O[C@@H](Oc2ccc3c(=O)c(-c4ccc(O)cc4)coc3c2)[C@H](O)[C@@H](O)[C@@H]1O [acetyldaidzin, 6″-O-acetyldaidzin]
41.6
